Test system: HeLa cells
Test: Cytotoxicity to mammalian cells, XTT assay
Format: cell-based, human
Conditions: at MIC against Tet^R E. coli (2: 48, 3: 28, 5: 56, 6: 120, 7: 128, 10: 10 μM), 24 h
measure name: percent survival HeLa (%)
# number only, unit % dropped from output

Answered examples (3):
Cl.Cl.N[C@@H](Cc1c[nH]c2ccccc12)C(=O)Nc1ccc(NC(=O)[C@@H](N)Cc2c[nH]c3ccccc23)cc1 ... 100
Cl.Cl.N[C@H](Cc1c[nH]c2ccccc12)C(=O)Nc1cccc(NC(=O)[C@H](N)Cc2c[nH]c3ccccc23)c1 ... 100
Cl.Cl.N[C@@H](Cc1c[nH]c2ccccc12)C(=O)Nc1ccccc1NC(=O)[C@@H](N)Cc1c[nH]c2ccccc12 ... 100

// next item, percent survival HeLa requested
Query: I have this molecule here, "Cl.Cl.N[C@@H](Cc1c[nH]c2ccccc12)C(=O)Nc1cccc(NC(=O)[C@@H](N)Cc2c[nH]c3ccccc23)c1" , and I need its recorded percent survival HeLa.
Result: 100

---

# MIC listing for each entry below
System: Tet^R E. coli

Study these solved cases before continuing.
Cl.Cl.NCC(=O)Nc1cccc(NC(=O)CN)c1 ... > 128 µM
Cl.N[C@@H](Cc1c[nH]c2ccccc12)C(=O)Nc1ccccc1 ... > 128 µM
Cl.Cl.N[C@@H](Cc1c[nH]c2ccccc12)C(=O)NCCCNC(=O)[C@@H](N)Cc1c[nH]c2ccccc12 ... > 128 µM
Cl.Cl.N[C@H](Cc1c[nH]c2ccccc12)C(=O)NCCCCNC(=O)[C@@H](N)Cc1c[nH]c2ccccc12 ... > 128 µM
O=C(CCc1c[nH]c2ccccc12)Nc1cccc(NC(=O)CCc2c[nH]c3ccccc23)c1 ... > 128 µM

Moving on to another compound below.
Query: Please tell me: MIC of CC1(C)S[C@@H]2[C@H](NC(=O)[C@H](N)c3ccccc3)C(=O)N2[C@H]1C(=O)O [ampicillin, reference compound] , system Tet^R E. coli?
Result: > 1000 µM
